Test system: CP256
Experiment: qHTS profiling for inhibitors of Plasmodium falciparum proliferation (AID 504749); also: nearly all actives have a fitted effect of over 60% in size
Conditions: P. falciparum in erythrocytes, SYBR Green DNA, 72 h; series mostly up to 12.8 µM
Inconclusive results are not listed. The source made the active and inactive calls. Calls follow the shape of the dose curve; as a rule, active = well fitted inhibition curve with a large enough effect; inconclusive = small, poorly fitted or top-dose-only effect; inactive = flat fitted curve, though single readings scatter.
Returns: one label drawn from active, inactive

Use the examples below as a reference point.
INSERT INTO measurements (molecule, category) VALUES
  ('CC(=O)OCC(=O)[C@@]1(O)[C@H](C)C[C@@H]2[C@H]3CCC4=CC(=O)C=C[C@]4(C)[C@]3(F)[C@@H](O)C[C@@]21C', 'inactive'),
  ('COc1ccc(C[C@@](C)(N)C(=O)O)cc1OC', 'inactive'),
  ('CC1=C(C(=O)O)N2C(=O)[C@@H](NC(=O)[C@@H](N)c3ccc(O)cc3)[C@@H]2SC1', 'inactive'),
  ('CC(=O)[C@@H]1CC[C@@H]2[C@@H]3C[C@H](C)C4=CC(=O)CC[C@@]4(C)[C@H]3[C@H](O)C[C@]21C', 'inactive'),
  ('CO[C@H]1[C@@H](OC(N)=O)[C@H](O)[C@@H](Oc2ccc3c(O)c(NC(=O)c4ccc(O)c(CC=C(C)C)c4)c(=O)oc3c2C)OC1(C)C', 'inactive');

Any idea what this test logged for CC(=O)OCC(=O)[C@@]12OC(C)(C)O[C@@H]1C[C@H]1[C@H]3C[C@H](F)C4=CC(=O)C=C[C@@]4(C)[C@]3(F)[C@H](O)C[C@@]12C ?
inactive

====

System: JCK
Experiment: qHTS profiling for inhibitors of Plasmodium falciparum proliferation (AID 504749); also: nearly all actives have a fitted effect of over 60% in size
Details: P. falciparum in erythrocytes, SYBR Green DNA, 72 h; series mostly up to 12.8 µM
Records with an inconclusive call do not appear. Activity calls are given as the source filed them. Calls follow the shape of the dose curve; as a rule, active = well fitted inhibition curve with a large enough effect; inconclusive = small, poorly fitted or top-dose-only effect; inactive = flat fitted curve, though single readings scatter.
RECORDED METRIC: outcome

INSERT INTO measurements (compound_structure_string, recorded_metric, reported_measurement) VALUES
  ('CCC(=O)O[C@@]1(C(=O)SCF)[C@@H](C)C[C@H]2[C@@H]3C[C@@H](F)C4=CC(=O)C=C[C@@]4(C)[C@]3(F)[C@@H](O)C[C@]21C', 'outcome', 'inactive'),
  ('CN[C@H]1[C@@H](O)[C@@H](NC)[C@@H]2O[C@@]3(O)C(=O)C[C@@H](C)O[C@H]3O[C@H]2[C@H]1O', 'outcome', 'inactive'),
  ('CCCCCCCCCc1ccc(OCCOCCOCCOCCOCCOCCOCCOCCOCCO)cc1', 'outcome', 'inactive');

====

System: 7G8
Test: qHTS profiling for inhibitors of Plasmodium falciparum proliferation (AID 504749); also: nearly all actives have a fitted effect of over 60% in size
Settings: P. falciparum in erythrocytes, SYBR Green DNA, 72 h; series mostly up to 12.8 µM
Records with an inconclusive call do not appear. Active and inactive are the calls of the source. Calls follow the shape of the dose curve; as a rule, active = well fitted inhibition curve with a large enough effect; inconclusive = small, poorly fitted or top-dose-only effect; inactive = flat fitted curve, though single readings scatter.
Respond only with the outcome that fits, drawn from True = active, False = inactive

Reference set (3 entries):
INSERT INTO measurements (compound, target_desc, category) VALUES
  ('CC1(C)S[C@H]2C(NC(=O)[C@@H](N)c3ccc(O)cc3)C(=O)N2[C@@H]1C(=O)O (some centres not stated)', '7G8', 'False'),
  ('CC1(C)[C@@H](OC(=O)CCC(=O)O)CC[C@@]2(C)[C@H]1CC[C@@]1(C)[C@H]2C(=O)C=C2[C@H]3C[C@](C)(C(=O)O)CC[C@]3(C)CC[C@@]21C', '7G8', 'False'),
  ('C[C@@]12CC[C@H]3[C@@H](CCC4=CC(=O)CC[C@]43C)[C@H]1CC[C@H]2C(=O)CO', '7G8', 'False');

How did this test come out for COc1ccccc1OC[C@H](O)CO ?
False

Assay outcome for Clc1ccc([C@H](Cn2ccnc2)OCc2csc3c(Cl)cccc23)c(Cl)c1 : what was it?
True

Give the logged outcome of this assay for the following compound: Cc1ccsc1/C=C\C1=NCCCN1C
False

// param item: CC1CCC(C(C)C)C(=O)C1 (configuration not stated) ; yields the recorded call
False

GET /call?item= CC1(C)SC2C(N3C(=O)C(c4ccccc4)NC3(C)C)C(=O)N2C1C(=O)O (configuration not stated) returns the recorded outcome of this test.
False

Which outcome was entered for the compound O=C(O)[C@@H]1CCCN1 in this test?
False
